Target: Cholinesterase (Homo sapiens, UniProt P06276)
Sequence (P06276 whole entry): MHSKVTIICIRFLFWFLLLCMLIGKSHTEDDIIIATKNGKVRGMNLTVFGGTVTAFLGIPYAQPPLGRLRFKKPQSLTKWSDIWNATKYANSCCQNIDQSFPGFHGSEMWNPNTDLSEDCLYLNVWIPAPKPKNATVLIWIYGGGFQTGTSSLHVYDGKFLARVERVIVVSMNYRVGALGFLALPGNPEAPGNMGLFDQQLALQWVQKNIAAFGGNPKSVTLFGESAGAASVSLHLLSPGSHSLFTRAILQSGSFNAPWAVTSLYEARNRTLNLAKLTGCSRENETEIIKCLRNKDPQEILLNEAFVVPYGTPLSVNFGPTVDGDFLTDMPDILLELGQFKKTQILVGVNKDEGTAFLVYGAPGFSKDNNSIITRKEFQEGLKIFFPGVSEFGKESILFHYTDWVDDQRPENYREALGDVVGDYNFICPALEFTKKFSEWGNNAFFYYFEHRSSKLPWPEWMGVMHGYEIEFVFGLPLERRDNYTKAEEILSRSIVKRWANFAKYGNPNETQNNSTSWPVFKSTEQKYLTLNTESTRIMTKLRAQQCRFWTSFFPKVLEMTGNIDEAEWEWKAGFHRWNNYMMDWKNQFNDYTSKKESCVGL
measurement-kind: IC50 (µM)
I only need the number, in µM, no unit after it.

Observe how each entry below is paired with its result.
Query for Cholinesterase (Homo sapiens, UniProt P06276): what IC50 does the record show for C#CCN1CCC(OC(=O)N(C)CC)CC1 ? 11.4

Tell me reported IC50 for CC(C)c1ccc(NC(=O)OC2CCN(Cc3ccccc3)CC2)cc1 , tested with Cholinesterase (Homo sapiens, UniProt P06276). 1.74

Give recorded IC50 with Cholinesterase (Homo sapiens, UniProt P06276) for the following compound: C#CCN1CCCC(COC(=O)Nc2ccc(C(C)C)cc2)C1 (stereo not drawn) 17.8

Form field - read-out: IC50; system: Cholinesterase (Homo sapiens, UniProt P06276); submitted item: O=C(Nc1ccccc1)OC1CCN(Cc2ccccc2)CC1 6.55

// fetch Cholinesterase (Homo sapiens, UniProt P06276) IC50 for CC(C)c1ccc(NC(=O)OC2CCCN(Cc3ccccc3)C2)cc1 (stereo not drawn) 3.25

Request body: readout IC50, system Cholinesterase (Homo sapiens, UniProt P06276), query CCN(C)C(=O)OC1CCN(C2Cc3ccccc3C2)CC1 . Return the value. 40.8

Now turn to the next compound.
Test system Cholinesterase (Homo sapiens, UniProt P06276); read-out IC50; what value for O=C(Nc1ccccc1)OCC1CCN(C2Cc3ccccc3C2)CC1 ? 1.43

###

Tested on: SH-SY5Y
Test: Cytotoxicity against human SH-SY5Y cells at 20 uM incubated for 48 hrs […]
Format: cell-based
measurement-kind: Activity

State its Activity on SH-SY5Y: CC(C)c1ccc(NC(=O)OCC2CCN(Cc3ccccc3)CC2)cc1 Non-Toxic

# query: Activity | item O=C(Nc1ccccc1)OCC1CCN(Cc2ccccc2)CC1 | system: SH-SY5Y Non-Toxic

Find the measured Activity: item C#CCN1CCC(OC(=O)Nc2ccc(C(C)C)cc2)CC1 , target or system SH-SY5Y. Non-Toxic

Given the entry O=C(Nc1ccccc1)OC1CCCN(C2Cc3ccccc3C2)C1 (centres undefined) , what Activity was observed with SH-SY5Y? Non-Toxic

###

Reported values: pIC50 for Acetylcholinesterase (Homo sapiens), one per item.
pIC50: −log10 of the molar value.

Some compounds with recorded pIC50:
Dear colleague, I am looking for the recorded pIC50 of the following compound: OC1CCN(Cc2ccccc2)CC1 < 4.00

Any idea what pIC50 was measured for CCN(C)C(=O)OC1CCN(Cc2ccccc2)CC1 ? < 4.00

Reported pIC50, compound CCN(C)C(=O)OCC1CCN(Cc2ccccc2)CC1 : ____ 4.14

What value of pIC50 has been recorded for this entry: C#CCN1CCCC(OC(=O)Nc2ccc(C(C)C)cc2)C1 (centres undefined) < 4.00

Form field: reported pIC50 of OC1CCCN(C2Cc3ccccc3C2)C1 (centres undefined) < 4.00

Given the entry C#CCN1CCCC(OC(=O)N(C)CC)C1 (centres undefined) , report its measured pIC50. < 4.00

Field request: pIC50 | item: C#CCN1CCC(OC(=O)Nc2ccc(C(C)C)cc2)CC1 < 4.00

Give its pIC50 value. Item: C#CCN1CCCC(O)C1 (centres undefined) < 4.00

Requested field: pIC50. Item: C#CCN1CCCC(CO)C1 (centres undefined) < 4.00

// query pIC50 value for entry O=C(Nc1ccccc1)OCC1CCCN(Cc2ccccc2)C1 (centres undefined) 4.17

---
Item O=C(Nc1ccccc1)OCC1CCN(Cc2ccccc2)CC1 has what recorded pIC50? 5.14

I am curious: what pIC50 value has been reported for C#CCN1CCC(COC(=O)Nc2ccccc2)CC1 ? < 4.00

Look at this compound and give its reported pIC50. O=C(Nc1ccccc1)OC1CCN(C2Cc3ccccc3C2)CC1 4.72

###

This section presents compounds with their documented IC50 values.
Biological target: Amine oxidase [flavin-containing] B (Homo sapiens, UniProt P27338)
Sequence (P27338 whole entry): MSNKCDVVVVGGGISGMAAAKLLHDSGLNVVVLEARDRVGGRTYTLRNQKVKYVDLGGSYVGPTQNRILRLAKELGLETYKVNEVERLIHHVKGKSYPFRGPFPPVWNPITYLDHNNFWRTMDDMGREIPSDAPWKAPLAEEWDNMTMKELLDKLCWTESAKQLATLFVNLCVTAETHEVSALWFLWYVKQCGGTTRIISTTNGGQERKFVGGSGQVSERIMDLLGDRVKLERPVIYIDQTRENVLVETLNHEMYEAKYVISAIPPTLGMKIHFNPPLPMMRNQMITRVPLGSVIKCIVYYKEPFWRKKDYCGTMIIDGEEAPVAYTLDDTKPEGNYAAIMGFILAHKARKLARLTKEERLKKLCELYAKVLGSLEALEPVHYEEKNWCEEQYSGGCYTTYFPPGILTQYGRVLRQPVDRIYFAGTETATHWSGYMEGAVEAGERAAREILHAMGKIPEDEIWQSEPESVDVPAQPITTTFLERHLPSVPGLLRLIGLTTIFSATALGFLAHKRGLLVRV
Experiment: Inhibition of human recombinant microsomal MAO-B expressed in baculovirus-infected BTI-TN-5B1-4 cells assessed as inhibition of H2O2 production using p-tyramine as substrate preincubated for 15 mins followed by substrate addition by Amplex Red reagent based fluorescence analysis

Sample answers from the record:
Please report the recorded IC50 for C#CCN1CCC(OC(=O)Nc2ccc(C(C)C)cc2)CC1 . 0.178 µM

Recorded IC50 for CC(C)c1ccc(NC(=O)OC2CCN(C3Cc4ccccc4C3)CC2)cc1 , please? > 100 µM

# query: IC50 of entry O=C(Nc1ccccc1)OC1CCN(Cc2ccccc2)CC1 > 100 µM

Now let's try a different one.
What value of IC50 has been reported for the following compound? CCN(C)C(=O)OCC1CCCN(Cc2ccccc2)C1 (centres undefined) > 100 µM

###

The listing below reports pIC50 for molecules tested on Acetylcholinesterase (Homo sapiens).
Sequence (P22303 whole entry): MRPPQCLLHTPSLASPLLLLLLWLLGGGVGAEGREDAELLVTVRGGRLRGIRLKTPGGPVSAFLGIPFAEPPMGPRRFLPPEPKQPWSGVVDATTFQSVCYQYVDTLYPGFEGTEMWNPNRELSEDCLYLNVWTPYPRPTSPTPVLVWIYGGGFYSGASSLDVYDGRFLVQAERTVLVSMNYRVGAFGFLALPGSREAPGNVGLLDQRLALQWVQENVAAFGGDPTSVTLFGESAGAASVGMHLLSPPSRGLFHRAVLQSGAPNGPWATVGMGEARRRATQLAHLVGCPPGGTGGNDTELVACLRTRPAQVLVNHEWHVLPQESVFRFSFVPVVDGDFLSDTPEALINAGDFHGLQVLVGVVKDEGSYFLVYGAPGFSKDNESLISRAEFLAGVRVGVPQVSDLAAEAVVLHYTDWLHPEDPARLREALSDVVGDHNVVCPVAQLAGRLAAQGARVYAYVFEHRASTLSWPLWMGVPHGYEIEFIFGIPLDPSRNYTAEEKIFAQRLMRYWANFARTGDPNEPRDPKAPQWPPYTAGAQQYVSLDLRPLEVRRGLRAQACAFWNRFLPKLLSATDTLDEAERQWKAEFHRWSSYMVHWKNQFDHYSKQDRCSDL
pIC50: −log10 of the molar value.

Would you please look over these solved cases?
Sample C#CCN1CCCC(OC(=O)Nc2ccccc2)C1 (stereo unspecified) — what was its pIC50? < 4.00

Name the recorded pIC50 for OC1CCCN(Cc2ccccc2)C1 (stereo unspecified) . < 4.00

What does the data say about its pIC50? Entry: OCC1CCN(Cc2ccccc2)CC1 < 4.00

What value of measured pIC50 is listed for C#CCN1CCC(OC(=O)Nc2ccccc2)CC1 ? < 4.00

May I ask what pIC50 has been recorded for O=C(Nc1ccccc1)OC1CCCN(Cc2ccccc2)C1 (stereo unspecified) ? < 4.00

Look up pIC50 for this molecule: O=C(Nc1ccccc1)OC1CCN(Cc2ccccc2)CC1 < 4.00

Further cases:
What value of pIC50 has been recorded for this entry: O=C(Nc1ccccc1)OCC1CCCN(C2Cc3ccccc3C2)C1 (stereo unspecified) < 4.00

Which measured pIC50 value corresponds to CCN(C)C(=O)OCC1CCN(C2Cc3ccccc3C2)CC1 ? < 4.00

Recorded pIC50 for CCN(C)C(=O)OC1CCCN(Cc2ccccc2)C1 (stereo unspecified) , please? < 4.00

Entry OCC1CCCN(Cc2ccccc2)C1 (stereo unspecified) : reported pIC50 = ? < 4.00

For the molecule shown here, C#CCN1CCCC(COC(=O)Nc2ccc(C(C)C)cc2)C1 (stereo unspecified) , give the reported pIC50. < 4.00

###

Recorded below: IC50, system Acetylcholinesterase (Homo sapiens).

Here are 10 molecules together with their reported answers.
Lab request: please report IC50 under test system Acetylcholinesterase (Homo sapiens) for CC(C)c1ccc(NC(=O)OCC2CCN(C3Cc4ccccc4C3)CC2)cc1 4.08 µM

State its IC50 on Acetylcholinesterase (Homo sapiens): CCN(C)C(=O)OCC1CCCN(Cc2ccccc2)C1 (stereo not given) 96.6 µM

Observed IC50 on Acetylcholinesterase (Homo sapiens) for CC(C)c1ccc(NC(=O)OCC2CCCN(Cc3ccccc3)C2)cc1 (stereo not given) , please. 15.1 µM

Return IC50 measured with Acetylcholinesterase (Homo sapiens) given this molecule: C#CCN1CCC(CO)CC1 > 100 µM

Short answer please: IC50, Acetylcholinesterase (Homo sapiens), entry CC(C)c1ccc(NC(=O)OC2CCN(Cc3ccccc3)CC2)cc1 > 100 µM

Recall the recorded IC50 for CCN(C)C(=O)OC1CCCN(C2Cc3ccccc3C2)C1 (stereo not given) with Acetylcholinesterase (Homo sapiens) and state it. > 100 µM

Requested read-out IC50, target or system Acetylcholinesterase (Homo sapiens), entry CC(C)c1ccc(NC(=O)OC2CCN(C3Cc4ccccc4C3)CC2)cc1 2.31 µM

Checklist item: IC50 tested on Acetylcholinesterase (Homo sapiens), entry OCC1CCN(C2Cc3ccccc3C2)CC1 , value? > 100 µM

Kindly state the measured IC50 obtained for C#CCN1CCC(COC(=O)Nc2ccc(C(C)C)cc2)CC1 with Acetylcholinesterase (Homo sapiens). > 100 µM

IC50 of O=C(Nc1ccccc1)OCC1CCN(C2Cc3ccccc3C2)CC1 on Acetylcholinesterase (Homo sapiens)? > 100 µM

Kindly review the next molecule as well.
Write down the reported IC50 of C#CCN1CCC(OC(=O)N(C)CC)CC1 , test system: Acetylcholinesterase (Homo sapiens). > 100 µM
